Catalogue of IC50 readings, one per entry.
Assay: Inhibition of porcine brain CK1delta/epsilon using CKS peptide as substrate
Design: species or system Sus scrofa

COc1ccc2[nH]c3c(c4c(n5cccc35)C(=O)NC4=O)c2c1 = > 10 µM
Cc1ccc2[nH]c3c(c4c(c5ccnn53)C(=O)NC4=O)c2c1 = 7.1 µM
COc1ccc2[nH]c3c(c4c(c5ccnn53)C(=O)NC4=O)c2c1 = > 10 µM

Read the next record carefully.
Problem: Look up and state reported IC50 for Cc1ccc2[nH]c3c(c4c(n5cccc35)C(=O)NC4=O)c2c1
Result: > 10 µM

###

Test system: A549
Assay: Cytotoxicity against human A549 cells after 72 hrs by MTT assay
Format: functional, cell-based
Details: A549, 72 h
Property: IC50; scope: individual molecules

For orientation, consider the following solved cases.
COc1ccc2[nH]c(-n3cccn3)cc2c1 = > 100 µM
Cc1ccc2[nH]c(-n3cccn3)cc2c1 = > 100 µM
COc1ccc2[nH]c3c4cn[nH]c4c4c(c3c2c1)C(=O)NC4=O = > 100 µM
c1ccc2[nH]c(-n3cccn3)cc2c1 = > 100 µM
O=C1NC(=O)c2c1c1[nH]ncc1c1[nH]c3ccccc3c21 = > 100 µM

Problem: Return value of IC50 for input Cc1ccc2[nH]c3c4cn[nH]c4c4c(c3c2c1)C(=O)NC4=O , no commentary.
Result: > 100 µM

Problem: Write down IC50 measured for item O=C1NC(=O)c2c1c1c3cc(O)ccc3[nH]c1c1cccn21
Result: > 100 µM
